Data credit: the DeepSol protein solubility set

# measurement description: soluble on expression in E. coli; label from the status in PepcDB or PDB records

| record sequence | soluble on expression in E. coli |
| --- | --- |
| MGSDKIHHHHHHMIKLILSAPVPAMAVAFEHSFQNTENVEIIPGPFETIPEFDCMVSAANSFGLMDGGVDAAITAYFGPQLQERVQQHILREYLGEQPVGTAFVIETGNSKYPWLVHAPTMRVPLIIDGTDAVYNATRAALLAIFQHNKSAGEDRKIKSVVFPAMGAGCGQVSPGSVARQMKLAWDGFINCTTEINWQYASARQNAVFSTTAYCPSKALCPNARTEYIGFGDYRTYCKKSGNTCISPRHQVDDIYIGAHSHAVFLSPNSHGKHLKPEYLSGVKNDV | not soluble |
| MSDATLHATDQNPDDFAVQIADQIESFLVAVTEVAKGDEPDSAVPFLLLEVSQLMLAGGRLGAHEDIVPDERYEPDPGPELDVDEIRENLARILDPVDVYSEVFDPYEPRKAPVPARISDDLTDVITDLRHGMVHYKAGRTTEALWWWQFSYFSNWGSTASATLRALQSVVAHVRLNQPLEELDGLDTDQELGEETLESEAGRVMVREIAAPLGLRPVKLEHHHHHH | soluble |
| MYAAYQTNGPARPIARTAAFTKEDDLLVDMARQNNLRGRILTYCVAGTFGLLSPNYLHASAATANWDINQIEISGLSESSVGAISESARDIAHIRAVTKISVSELSRVFGVSRQAVHEWIKGGTLSQRNAQRLSELARATDVFIEAEIEASPQVFRRKIAGGQSILDAVRENGNAVELAKTLAATLVRESQQRQRLAARLAGRSATPGTSTEFGSPHLDEDA | not soluble |
| MGSDKIHHHHHHMIAQVEPFHAIAISRLAHDLEAAGQSVIHMEFGQPSTGAPAEAIALAHEVLDNEAMGYWESVPLKERIARSYAENHGVKVEREQVILTCGASPAFVMALSCLFRPGARIALARPGYVAYRNSLKAMYLEPVEMECGPAERFQVTAAAVDALDPVPDGLIVASPANPTGTIIEPGELAAIAEVCCRKGIRVISDEIYHGLSYGKAAASMLEYLPDAVIVNSFSKYFSMAGWRLGWLVVPPSLIDAARARMGSLFLTPPVLAQKAGLKAFDCRAELDGHVETYARNRAILLEALPQMGLGRIAPPDGAFYIYADASEFTDDSLALCEALLRDTGVATAPGLDFDPVNGKRFIRFSFAVSTPLIEEAVRRIGPWFAARRAVSPAQAPS | not soluble |
| GLDTGALDQQQNNNGRESIRTVNVSVNNAVTKIVSNMSPAVVGVVNIQKSDIWGESGEAGSGSGVIYKKNDHSAYVVTNHHVIEGASQIEISLKDGSRVSADLVGSDQLMDLAVLRVKSDKIKAVADFGNSDKVKSGEPVIAIGNPLGLEFAGSVTQGVISGTERAIPVDSNGDGQPDWNAEVLQTDAAINPGNSGGALLNMDGKVIGINSMKIAESAVEGIGLSIPSKLVIPVIEDLERYGKVKRPFLGIEMKSLSDIASYHWDETLKLPKNVTNGAVVMGVDAFSPAGKAGLKELDVITEFDGYKVNDIVDLRKRLYQKKVGDRVKVKFYRGGKEKSVDIKLSSA | not soluble |
| MAFDGCCPDCKLPGDDCPLIWGACNHAFHLHCILKWVNSQTSQAHCPMCRREWQFKE | soluble |
| MTVAVSPDGLPALVLNADYRPLSYYPLSLWSWQDAIKAVFLDRVNIVAEYEHAVSSPTFSMKLPSVVSLKAYVKPSRHPAFTRFNVFLRDRFQCQYCGTPDDLTFDHVIPRHRGGATTWENVVAACSPCNLRKGGMMPAHAKMWPLQKPYQPTVHDLHNNGRLFPPNHLHESWMDYLYWDVELEPLEHHHHHH | not soluble |
